# Experimental Target: Ba/F3 ETV6-TRKB (Homo sapiens)
# Sequence (Q16620 32-822 limits assumed, change not shown): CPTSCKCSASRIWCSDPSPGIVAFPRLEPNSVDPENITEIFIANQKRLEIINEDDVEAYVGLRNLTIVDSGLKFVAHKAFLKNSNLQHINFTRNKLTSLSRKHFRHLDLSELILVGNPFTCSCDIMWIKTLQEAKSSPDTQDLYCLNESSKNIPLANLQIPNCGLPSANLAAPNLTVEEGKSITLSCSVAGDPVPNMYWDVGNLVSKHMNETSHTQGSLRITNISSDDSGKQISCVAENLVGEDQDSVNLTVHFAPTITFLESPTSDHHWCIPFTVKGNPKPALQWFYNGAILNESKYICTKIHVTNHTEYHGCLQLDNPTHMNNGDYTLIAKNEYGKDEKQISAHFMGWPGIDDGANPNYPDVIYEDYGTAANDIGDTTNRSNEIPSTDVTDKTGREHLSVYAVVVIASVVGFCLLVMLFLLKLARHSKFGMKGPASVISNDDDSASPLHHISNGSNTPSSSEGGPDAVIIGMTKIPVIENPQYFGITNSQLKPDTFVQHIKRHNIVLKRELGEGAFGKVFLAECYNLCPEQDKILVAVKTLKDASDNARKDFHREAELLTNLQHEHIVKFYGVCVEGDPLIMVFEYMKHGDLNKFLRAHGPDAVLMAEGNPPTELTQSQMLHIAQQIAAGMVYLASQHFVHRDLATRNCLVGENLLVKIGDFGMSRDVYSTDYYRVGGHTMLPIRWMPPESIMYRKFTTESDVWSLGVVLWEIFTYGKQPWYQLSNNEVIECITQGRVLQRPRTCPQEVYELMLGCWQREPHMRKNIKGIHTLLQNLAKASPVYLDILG
# Method Summary: Ba/F3 cell proliferation assay, ETV6-TRKB
# Format: cell-based
# Assay Context: Ba/F3 stable cells, 72 hours, CellTiter-Glo; read-out: ETV6-TRKB IC50
pIC50: −log10 of the molar value.
The following molecules are shown together with reported pIC50 values.
Experimental Endpoint: pIC50

- CCn1nc(C(=O)N(C)C)c2c1-c1cnc(N)c(c1)O[C@H](C)c1cc(F)ccc1-c1nn(C)cc1C2: 6.30 to 7.30
- CCn1ncc2c1-c1cnc(N)c(c1)O[C@H](C)c1cc(F)ccc1-c1nn(C)cc1C2=O: 6.30 to 7.30
- CC1Oc2cc(cnc2N)-c2c(c(C#N)nn2CC2CC2)Cc2cn(C)nc2-c2c(F)cc(F)cc21 (centres unmarked): < 6.30
- CON(C)C(=O)c1nn(CC2CC2)c2c1Cc1cn(C)nc1-c1ccc(F)cc1[C@@H](C)Oc1cc-2cnc1N: < 6.30
- CCc1nn(C(=O)N(C)C)c2c1-c1cnc(N)c(c1)O[C@H](C)c1cc(F)ccc1-c1ncccc1C2: 7.30 to 10.00
- Cc1nc2c(s1)Cc1c(c(C#N)nn1C(=O)N(C)C)-c1cnc(N)c(c1)O[C@H](C)c1cc(F)ccc1-2: < 6.30
- C[C@H]1Oc2cc(cnc2N)-c2c(c(S(C)(=O)=O)nn2CC2CC2)Cc2cn(C)nc2-c2ccc(F)cc21: < 6.30
- C[C@H]1Oc2cc(cnc2N)-c2c(C#N)nn(C)c2C(=O)c2cn(C)nc2-c2c(F)cc(F)cc21: < 6.30
- CCn1nc(C(=O)N(C)C)c2c1-c1cnc(N)c(c1)O[C@H](C)c1cc(F)cc(F)c1-c1ncccc1C2: 6.30 to 7.30
- C[C@H]1Oc2cc(cnc2N)-c2c(nn(C)c2C#N)C(=O)c2cn(C)nc2-c2c(F)cc(F)cc21: < 6.30
- CCn1nc(C(=O)N(C)C)c2c1-c1cnc(N)c(c1)O[C@H](C)c1cc(F)ccc1-c1ncccc1C2=O: < 6.30
- CC(C)N(C)C(=O)c1nn(CC2CC2)c2c1Cc1cn(C)nc1-c1ccc(F)cc1[C@@H](C)Oc1cc-2cnc1N: < 6.30
- C[C@H]1Oc2cc(cnc2N)-c2c(c(C(=O)N(C)C3CC3)nn2CC2CC2)Cc2cn(C)nc2-c2ccc(F)cc21: < 6.30
- C[C@H]1Oc2cc(cnc2N)-c2c(c(C(=O)N(C)C)nn2C2CCC2)Cc2cn(C)nc2-c2ccc(F)cc21: < 6.30
- C[C@H]1Oc2cc(cnc2N)-c2c(c(C(=O)N(C)C)nn2CC2CC2)Oc2cccnc2-c2ccc(F)cc21: < 6.30
- C[C@H]1Oc2cc(cnc2N)-c2c(c(C(=O)N(C)CC(F)(F)F)nn2CC2CC2)Cc2cn(C)nc2-c2ccc(F)cc21: < 6.30
- C[C@H]1Oc2cc(cnc2N)-c2c(C#N)nn(C)c2C(=O)c2cccnc2-c2ccc(F)cc21: < 6.30
- C[C@H]1Oc2cc(cnc2N)-c2c(c([S+](C)[O-])nn2CC2CC2)Cc2cn(C)nc2-c2ccc(F)cc21 (some centres unmarked): < 6.30
- C[C@H]1Oc2cc(cnc2N)-c2c(c(C(N)=O)nn2CC2CC2)Cc2cccnc2-c2ccc(F)cc21: < 6.30
- CCn1ncc2c1-c1cnc(N)c(c1)O[C@H](C)c1cc(F)ccc1-c1ncccc1O2: 7.30 to 10.00
- C[C@H]1Oc2cc(cnc2N)-c2c(CC3CC3)nc(C(=O)N(C)C)n2Cc2cn(C)nc2-c2ccc(F)cc21: < 6.30
- CCOC(=O)c1nn(CC2CC2)c2c1Oc1cccnc1-c1ccc(F)cc1[C@@H](C)Oc1cc-2cnc1N: < 6.30
- C[C@H]1Oc2cc(cnc2N)-c2c(c(C(=O)N(C)C)nn2CC2CCC2)Cc2cn(C)nc2-c2ccc(F)cc21: < 6.30
- Cc1cc2n(n1)-c1c(F)cc(F)cc1[C@@H](C)Oc1cc(cnc1N)-c1c(c(C(=O)N(C)C)nn1CC1CC1)C2: < 6.30
- C[C@H]1Oc2cc(cnc2N)-c2c(nn(C)c2C#N)C(=O)c2cccnc2-c2c(F)cc(F)cc21: 6.30 to 7.30
- C[C@H]1Oc2cc(cnc2N)-c2c(cnn2CC2CC2)C(=O)c2cccnc2-c2ccc(F)cc21: < 6.30
- C[C@H]1Oc2cc(cnc2N)-c2c(C3CCC3)nn(C(=O)N(C)C)c2Cc2cccnc2-c2ccc(F)cc21: 6.30 to 7.30
- CCn1nc2c(c1C#N)-c1cnc(N)c(c1)O[C@H](C)c1cc(F)ccc1-c1ncccc1C2=O: 6.30 to 7.30
- C[C@H]1Oc2nc(cnc2N)-c2c(nn(C)c2C#N)C(=O)c2cccnc2-c2c(F)cc(F)cc21: 6.30 to 7.30
